Origin of measurements: the supplement of paper PMC9112550

- System: Escherichia coli TOP10;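 also: peptides expressed intracellularly from a pBAD plasmid library in pooled LB shake-flask culture, induced with 0.3% L-arabinose, DNA abundance read by NGS, three biological replicates, DESeq2 with apeglm shrinkage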
- experiment: shrunken log2 fold change of peptide-encoding DNA abundance (4.5 h post-induction vs induction); higher = less antimicrobial activity (less host growth inhibition)
- condition_description: time post-induction: 4.5 h; library: site-saturation at positions 5, 18, 19, 20
Would you kindly list shrunken log2 fold change for each of these sequences?

1) RRIRMRPPRLPRPRPRPPCRPRP    0.584

# per-item lookup of shrunken log2 fold change; items listed below
1. RRIRVRPPRLPRPRPRPKAKPRP
2. RRIRMRPPRLPRPRPRPNTFPRP
3. RRIRHRPPRLPRPRPRPITSPRP

OUTPUT:
0.0989
0.105
-0.401

# per-item lookup of shrunken log2 fold change; items listed below
1. RRIRNRPPRLPRPRPRPLLFPRP
2. RRIRHRPPRLPRPRPRPLIIPRP

OUTPUT:
1: -0.188; 2: -0.377

# per-item lookup of shrunken log2 fold change; items listed below
1. RRIRTRPPRLPRPRPRPAYWPRP
2. RRIRCRPPRLPRPRPRPHYKPRP
3. RRIRLRPPRLPRPRPRPVDFPRP
4. RRIRNRPPRLPRPRPRPTNGPRP
5. RRIRMRPPRLPRPRPRPAYHPRP
6. RRIRTRPPRLPRPRPRPCCDPRP

OUTPUT:
1: -0.017; 2: -0.894; 3: 0.0727; 4: -0.0138; 5: -0.157; 6: -0.151

# per-item lookup of shrunken log2 fold change; items listed below
1. RRIRARPPRLPRPRPRPHQAPRP
2. RRIRARPPRLPRPRPRPEMMPRP

OUTPUT:
1: -0.0279; 2: 1.12

# per-item lookup of shrunken log2 fold change; items listed below
1. RRIRPRPPRLPRPRPRPEQYPRP
2. RRIRERPPRLPRPRPRPKCRPRP
3. RRIRWRPPRLPRPRPRPYSMPRP
4. RRIRHRPPRLPRPRPRPIEDPRP
5. RRIRSRPPRLPRPRPRPRALPRP
6. RRIRRRPPRLPRPRPRPFAHPRP
7. RRIRCRPPRLPRPRPRPGMSPRP

OUTPUT:
1: -0.226; 2: -0.0625; 3: -0.314; 4: 0.0058; 5: 0.0323; 6: -0.00279; 7: 0.0961

# per-item lookup of shrunken log2 fold change; items listed below
1. RRIRTRPPRLPRPRPRPWHYPRP
2. RRIRQRPPRLPRPRPRPAMDPRP
3. RRIRLRPPRLPRPRPRPDFGPRP
4. RRIRRRPPRLPRPRPRPHPFPRP

OUTPUT:
[-0.268, -0.00901, 0.153, 0.116]

# per-item lookup of shrunken log2 fold change; items listed below
1. RRIRIRPPRLPRPRPRPHMKPRP
2. RRIRERPPRLPRPRPRPSMDPRP

OUTPUT:
-0.809
-0.355

# per-item lookup of shrunken log2 fold change; items listed below
1. RRIRVRPPRLPRPRPRPTTAPRP
2. RRIRNRPPRLPRPRPRPLQDPRP
3. RRIRRRPPRLPRPRPRPHWLPRP
4. RRIRKRPPRLPRPRPRPLHGPRP

OUTPUT:
1: 0.181; 2: -0.247; 3: 0.28; 4: -0.0122

# shrunken log2 fold change measured on Escherichia coli TOP10 for item RRIRARPPRLPRPRPRPPVFPRP = 0.416
